These data points were gathered from patent US9067894B1.

molecular target: GIRK1/2 (Homo sapiens, UniProt P48051+P48549); test: Thallium flux assay, HEK-293 cells expressing GIRK1/2; assay type: cell-based; design: host or cells: HEK-293; details: cell line GIRK1-2; average ± SEM; read-out: EC50 Thallium Flux
Sequence (P48549 whole entry): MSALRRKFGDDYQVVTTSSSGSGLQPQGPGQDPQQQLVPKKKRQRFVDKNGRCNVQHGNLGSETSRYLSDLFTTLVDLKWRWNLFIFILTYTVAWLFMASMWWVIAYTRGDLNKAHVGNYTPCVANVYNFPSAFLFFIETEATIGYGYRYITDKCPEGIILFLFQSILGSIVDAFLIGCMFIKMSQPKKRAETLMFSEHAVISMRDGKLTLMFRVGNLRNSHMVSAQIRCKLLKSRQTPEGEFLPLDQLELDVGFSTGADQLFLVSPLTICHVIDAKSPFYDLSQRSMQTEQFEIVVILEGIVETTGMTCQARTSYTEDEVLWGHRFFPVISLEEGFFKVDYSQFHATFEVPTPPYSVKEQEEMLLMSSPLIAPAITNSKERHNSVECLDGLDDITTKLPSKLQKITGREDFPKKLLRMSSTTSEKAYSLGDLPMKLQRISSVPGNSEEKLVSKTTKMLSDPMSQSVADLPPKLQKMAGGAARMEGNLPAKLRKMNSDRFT
Sequence (P48051 whole entry): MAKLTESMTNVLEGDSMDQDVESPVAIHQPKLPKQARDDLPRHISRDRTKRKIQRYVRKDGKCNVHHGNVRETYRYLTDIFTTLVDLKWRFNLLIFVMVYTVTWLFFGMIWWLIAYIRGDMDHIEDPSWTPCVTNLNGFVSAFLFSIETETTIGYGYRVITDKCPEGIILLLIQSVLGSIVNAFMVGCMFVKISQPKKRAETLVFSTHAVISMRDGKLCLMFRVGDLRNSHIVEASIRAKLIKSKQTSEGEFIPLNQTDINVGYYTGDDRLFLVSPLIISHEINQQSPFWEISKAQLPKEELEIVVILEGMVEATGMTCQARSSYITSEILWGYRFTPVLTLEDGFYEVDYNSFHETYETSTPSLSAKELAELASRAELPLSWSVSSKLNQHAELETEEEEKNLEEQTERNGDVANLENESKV
Parameter: pEC50
pEC50 here is simply -log10 of the concentration when that concentration is written in mol/L.

Entry Cc1cc(NC(=O)Nc2ccc(F)c(F)c2)n(-c2ccccc2)n1 , system GIRK1/2 (Homo sapiens, UniProt P48051+P48549): what pEC50 was measured?
6.79

----------
assay: In vivo pharmacokinetic study, IP in mice; settings: male, C57 BL6, brain; mouse, intraperitoneal 10 mg/kg, 30 min after administration; read-out: Brain concentration
Parameter: concentration at 30 min

Any idea what concentration at 30 min was measured for Cc1cc(NC(=O)Nc2ccc(F)c(F)c2)n(-c2ccccc2)n1 ?
500 nM

----------
Recorded GIRK1/4 efficacy (activator) for the following molecules
target: GIRK1/4 (Homo sapiens, UniProt P48544+P48549); construct: expressed in transfected cells; host or cells: HEK-293; assay: Thallium flux assay protocol (Examples 2 and 3), GIRK1/GIRK4 HEK-293 cells; format: cell-based; conditions: standardized to 2 (ML297) = 100%
Sequence (P48549 whole entry): as the sequence (P48549 whole entry) above
Sequence (P48544 whole entry): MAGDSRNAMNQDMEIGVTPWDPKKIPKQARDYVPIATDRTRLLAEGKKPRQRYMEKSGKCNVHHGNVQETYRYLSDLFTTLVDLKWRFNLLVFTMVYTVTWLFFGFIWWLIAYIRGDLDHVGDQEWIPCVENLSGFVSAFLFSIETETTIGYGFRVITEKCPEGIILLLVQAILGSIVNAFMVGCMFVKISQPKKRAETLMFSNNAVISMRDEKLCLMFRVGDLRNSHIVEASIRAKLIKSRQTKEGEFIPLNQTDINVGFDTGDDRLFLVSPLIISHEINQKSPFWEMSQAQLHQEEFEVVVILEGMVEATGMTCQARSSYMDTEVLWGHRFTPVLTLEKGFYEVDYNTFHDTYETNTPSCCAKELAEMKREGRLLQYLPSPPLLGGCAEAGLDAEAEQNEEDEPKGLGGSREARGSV
Hi! Could you send only the number? It should be in %, unit omitted.

{"columns": ["Molecule", "Parameter", "Value"],
 "data": [
  ["Cc1ccc(NC(=O)Cc2ccccc2Br)cc1S(=O)(=O)N(C)C [3a]", "GIRK1/4 efficacy (activator)", 114],
  ["O=C(Cc1ccccc1Cl)Nc1cccc(Cl)c1 [8g]", "GIRK1/4 efficacy (activator)", 22],
  ["Cc1cc(NC(=O)Nc2ccc(F)c(F)c2)n(Cc2ccccc2)n1 [5d]", "GIRK1/4 efficacy (activator)", 99],
  ["O=C(Cc1ccccc1Cl)Nc1ccc(Cl)c(C(F)(F)F)c1 [8e]", "GIRK1/4 efficacy (activator)", 17]
]}

Here is another molecule to look at.
Any idea what GIRK1/4 efficacy (activator) was measured for Cc1ccc(NC(=O)Cc2ccccc2Cl)cc1S(=O)(=O)N(C)C [compound 3] ?
104
